Attribution: patent US7998940B2

Parameter Screen- Rabbit/No Protein: see the listing below.
- System: rabbit vWF A1 domain (SEQ ID NO 6)
- Sequence (as listed by the source): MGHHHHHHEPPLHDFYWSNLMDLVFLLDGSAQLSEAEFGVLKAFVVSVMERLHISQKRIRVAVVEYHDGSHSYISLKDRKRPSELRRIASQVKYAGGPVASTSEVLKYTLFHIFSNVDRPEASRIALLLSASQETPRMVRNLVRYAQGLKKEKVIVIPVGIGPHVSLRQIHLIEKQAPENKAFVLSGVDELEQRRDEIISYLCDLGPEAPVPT
- ASSAY_PROCEDURE: 3-point dot blot screen, rabbit vWF A1 domain
- Type: binding
- CONDITION_INFO: rRfY aptamers; 100 nM rabbit vWF A1 domain; ratio of fraction bound with target to without
Oligonucleotides are written 5' to 3', each unit as a sugar letter and its base; * is a phosphorothioate linkage, no mark a phosphodiester; rarer units and linkages stand in square brackets, end groups in braces. Plain capitals give the bases only. r = 2'-OH (RNA); f = 2'-fluoro
EXPERIMENTAL_ENDPOINT: Screen- Rabbit/No Protein

MOLECULE | ENDPOINT_VALUE
AMX201.H11: rRfY aptamer clone (nucleic acid) rGrGrArGfCrGfCrAfCfUfCrArGfCfCrAfCfCfCfUrGfUfCrGfUfCfUfUfUfUrGrGfUrArGfUfCrArGfCfCrArArArArGfCfUrArGfUfUrGrGfUfUrGfUfUfUfCrGrAfCfCfUfCfUfCfUrGfCfUrArGfC | 1.40
AMX201.A8: rRfY aptamer clone (nucleic acid) rGrGrArGfCrGfCrAfCfUfCrArGfCfCrAfCrGfCfUrGfUrAfCrAfCfUrGrAfUrGfUfUrGfUrArAfCrAfUrGfUrAfCfCfCfCfCfUrGrGfCfUrGfUfUfUfCrGrAfCfCfUfCfUfCfUrGfCfUrArGfC | 1.51
AMX198.G1: rRfY aptamer clone (nucleic acid) rGrGrArGfCrGfCrAfCfUfCrArGfCfCrAfCrArAfCrAfCfUrArAfUrGrGrGrGrArArArGfUfUfCrArArGrGrAfUfUfCfUfUrGrAfCfCrGrGfUrGfCrGfUfUfUfCrGrAfCfCfUfCfUfCfUrGfCfUrArGfC | 1.90
